- test_target: Angiotensin-converting enzyme (Oryctolagus cuniculus, UniProt P12822);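 further: enzymatic inhibition of angiotensin-converting enzyme measured with FAPGG as the substrate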; further: in other assays of this panel Not Active means under 50% inhibition at 10 µM
- Sequence (P12822 whole entry): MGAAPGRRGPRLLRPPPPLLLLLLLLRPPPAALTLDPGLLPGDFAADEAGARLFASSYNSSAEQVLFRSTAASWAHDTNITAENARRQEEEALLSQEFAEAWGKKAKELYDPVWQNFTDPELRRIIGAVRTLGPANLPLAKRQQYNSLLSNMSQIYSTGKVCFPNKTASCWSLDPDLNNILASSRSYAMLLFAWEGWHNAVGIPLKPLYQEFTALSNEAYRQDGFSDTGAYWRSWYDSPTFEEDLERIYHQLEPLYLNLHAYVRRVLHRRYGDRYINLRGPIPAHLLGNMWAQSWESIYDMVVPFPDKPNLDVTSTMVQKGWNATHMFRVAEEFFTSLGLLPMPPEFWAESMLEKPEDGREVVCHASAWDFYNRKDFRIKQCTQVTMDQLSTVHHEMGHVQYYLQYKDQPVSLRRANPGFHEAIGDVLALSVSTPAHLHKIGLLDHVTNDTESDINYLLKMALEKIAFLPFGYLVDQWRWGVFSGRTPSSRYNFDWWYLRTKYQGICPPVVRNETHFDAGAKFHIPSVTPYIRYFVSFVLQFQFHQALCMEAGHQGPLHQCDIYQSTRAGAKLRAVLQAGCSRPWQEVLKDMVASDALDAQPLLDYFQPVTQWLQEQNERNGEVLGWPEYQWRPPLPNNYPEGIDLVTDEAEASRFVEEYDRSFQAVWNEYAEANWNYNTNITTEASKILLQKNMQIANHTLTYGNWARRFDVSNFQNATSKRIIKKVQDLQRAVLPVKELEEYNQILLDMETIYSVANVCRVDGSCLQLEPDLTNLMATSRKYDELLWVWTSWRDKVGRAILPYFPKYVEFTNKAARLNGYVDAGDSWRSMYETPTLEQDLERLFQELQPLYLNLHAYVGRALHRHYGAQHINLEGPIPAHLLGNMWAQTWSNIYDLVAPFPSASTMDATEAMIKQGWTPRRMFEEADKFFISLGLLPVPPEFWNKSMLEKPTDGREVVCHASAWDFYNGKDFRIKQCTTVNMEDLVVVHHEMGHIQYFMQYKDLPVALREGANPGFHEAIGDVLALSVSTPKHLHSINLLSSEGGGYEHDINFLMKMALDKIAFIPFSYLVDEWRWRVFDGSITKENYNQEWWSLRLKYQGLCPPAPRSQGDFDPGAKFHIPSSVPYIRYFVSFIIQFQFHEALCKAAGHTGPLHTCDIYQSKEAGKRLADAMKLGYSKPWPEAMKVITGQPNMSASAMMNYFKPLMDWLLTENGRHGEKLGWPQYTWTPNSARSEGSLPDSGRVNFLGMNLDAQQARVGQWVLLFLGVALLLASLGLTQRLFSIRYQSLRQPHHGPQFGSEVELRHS
- Format: tissue-based, Lung
metric_name: IC50

compound	test_target	IC50
CC(CCc1ccc(O)cc1)NCCc1ccc(O)c(O)c1 (stereo not given)	Angiotensin-converting enzyme (Oryctolagus cuniculus, UniProt P12822)	Not Active
Nc1ccc(S(=O)(=O)Nc2ncccn2)cc1	Angiotensin-converting enzyme (Oryctolagus cuniculus, UniProt P12822)	Not Active
O=C(O)c1cc(=O)c2c(OCC(O)COc3cccc4oc(C(=O)O)cc(=O)c34)cccc2o1	Angiotensin-converting enzyme (Oryctolagus cuniculus, UniProt P12822)	Not Active
COc1ncnc(NS(=O)(=O)c2ccc(N)cc2)c1OC	Angiotensin-converting enzyme (Oryctolagus cuniculus, UniProt P12822)	Not Active
CNC(=C[N+](=O)[O-])NCCSCc1csc(CN(C)C)n1	Angiotensin-converting enzyme (Oryctolagus cuniculus, UniProt P12822)	Not Active
CNS(=O)(=O)Cc1ccc2[nH]cc(CCN(C)C)c2c1	Angiotensin-converting enzyme (Oryctolagus cuniculus, UniProt P12822)	Not Active
Cc1cccc(Nc2cc(Cl)nc(SCC(=O)O)n2)c1C	Angiotensin-converting enzyme (Oryctolagus cuniculus, UniProt P12822)	Not Active
C=C(C)[C@H]1Cc2c(ccc3c2O[C@@H]2COc4cc(OC)c(OC)cc4[C@@H]2C3=O)O1	Angiotensin-converting enzyme (Oryctolagus cuniculus, UniProt P12822)	Not Active
COc1ccc(CN2CCNCC2)c(OC)c1OC	Angiotensin-converting enzyme (Oryctolagus cuniculus, UniProt P12822)	Not Active

For the next question, use this compound.
Task item: Given COc1ccc(/C=C/C(=O)Nc2ccccc2C(=O)O)cc1OC , state its recorded IC50.
Reply: Not Active
